- target or system: T1, human melanocortin 4 receptor (human, UniProt P32245 1-332)
- T1 construct: whole, on cells; cAMP assays used whole cells; also called hMC4-R; MC4-R
- T1 sequence (P32245 whole entry): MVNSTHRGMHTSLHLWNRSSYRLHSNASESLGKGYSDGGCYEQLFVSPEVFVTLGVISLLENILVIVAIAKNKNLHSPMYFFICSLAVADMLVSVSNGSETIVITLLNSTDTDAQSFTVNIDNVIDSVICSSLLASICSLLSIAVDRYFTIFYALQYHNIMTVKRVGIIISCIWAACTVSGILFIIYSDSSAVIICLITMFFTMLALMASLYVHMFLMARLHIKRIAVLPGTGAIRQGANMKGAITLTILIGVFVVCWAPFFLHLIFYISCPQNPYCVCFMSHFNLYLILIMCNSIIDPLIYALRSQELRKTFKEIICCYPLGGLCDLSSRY
- procedure text: radioligand competition, [I125]-NDP-α-MSH, hMC4-R membranes
Positions of bridges follow the written chain, without caps; N, C: chain ends. Non-standard residues stand in square brackets, D forms with d. 2Nal = N[C@@H](Cc1ccc2ccccc2c1)C(=O)O; d2Nal = N[C@H](Cc1ccc2ccccc2c1)C(=O)O
measurement label: Ki (nM)
Quick reminder: number only, in nM, skip the unit.

Dear colleague, I am looking for the recorded Ki of the following binder: Ac-DW[d2Nal]R[2Nal]K-NHMe (lactam 1-6, also called Compound No. 35) [Ac-cyclo(Asp-Trp-D-Nal 2-Arg-Nal 2-Lys)-NH-CH3] 0.06
